Biological target: wild-type EPSP synthase of tomato (Solanum lycopersicum)
Construct: ATG translational initiation codon at the site predicted to be the start of the mature enzyme for in vitro expression in E. Coli; initiator methionine (ATG in an engineered NcoI site) (N)
Sequence (P10748 77-520): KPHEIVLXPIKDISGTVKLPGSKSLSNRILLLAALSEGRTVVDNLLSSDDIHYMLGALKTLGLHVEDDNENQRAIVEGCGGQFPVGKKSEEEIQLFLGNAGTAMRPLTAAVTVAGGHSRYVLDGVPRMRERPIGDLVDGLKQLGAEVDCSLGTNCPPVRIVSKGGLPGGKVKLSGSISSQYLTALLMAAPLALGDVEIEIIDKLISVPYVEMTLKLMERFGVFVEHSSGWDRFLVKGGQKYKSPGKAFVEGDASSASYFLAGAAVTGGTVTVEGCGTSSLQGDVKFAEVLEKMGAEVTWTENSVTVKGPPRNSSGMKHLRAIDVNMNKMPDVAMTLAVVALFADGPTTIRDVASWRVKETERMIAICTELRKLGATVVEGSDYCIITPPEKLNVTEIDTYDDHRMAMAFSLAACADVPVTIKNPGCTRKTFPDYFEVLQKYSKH
Assay: EPSP synthase activity assay, extracts of E. coli SR481 harboring pMON9719
MEASUREMENT KIND: IC50 (µM)
Express it in µM; write the number only.

IN: Using the record for O=C(O)CNCP(=O)(O)O [glyphosate, N-phosphonomethylglycine] , report its IC50.
OUT: 12

====

Biological target: glyphosate-tolerant EPSP synthase (gly(101)-ala) of tomato (Solanum lycopersicum, UniProt P10748, G177A)
Construct: ATG translational initiation codon at the site predicted to be the start of the mature enzyme for in vitro expression in E. Coli; initiator methionine (ATG in an engineered NcoI site) (N)
Sequence (P10748 77-520 G177A): as the sequence (P10748 77-520) above, with G101A counted along it
Test: EPSP synthase activity assay, extracts of E. coli SR481 harboring pMON9729
MEASUREMENT KIND: IC50 (mM)
Give your result in mM as a bare value.

IN: What does the data say about its IC50? Entry: O=C(O)CNCP(=O)(O)O [glyphosate, N-phosphonomethylglycine]
OUT: 32
